Entries and their Post-emergence action against KCHSC
# Tested on: KCHSC
# assay_method_text: Post-emergence action against KCHSC, 1.28 kg/ha
# Assay type: in vivo, Bassia scoparia
# condition_description: dosage 1280 g/ha, visual rating about 3 weeks after treatment vs untreated controls (100% = plants died)

>  <compound>
O=C(O)COc1nn(-c2ccc(F)cc2)c(-c2ccc(F)nc2)c1Br

>  <tested_target>
KCHSC

>  <observed_result>
100%

$$$$
>  <compound>
N#CCCNC(=O)COc1nn(-c2ccc(F)cc2F)c(-c2ccc(F)nc2)c1Br

>  <tested_target>
KCHSC

>  <observed_result>
90%

$$$$
>  <compound>
CCOC(=O)COc1nn(-c2ccc(F)cc2)c(-c2ccc(F)nc2)c1C(F)(F)F

>  <tested_target>
KCHSC

>  <observed_result>
100%

$$$$
>  <compound>
O=C(O)COc1nn(-c2ccccc2F)c(-c2ccnnc2)c1Br

>  <tested_target>
KCHSC

>  <observed_result>
90%

$$$$
>  <compound>
CCOC(=O)COc1nn(-c2ccccc2F)c(-c2ccc(F)cn2)c1I

>  <tested_target>
KCHSC

>  <observed_result>
100%

$$$$

// Post-emergence action against KCHSC lookup, compound = O=C(O)CNC(=O)COc1nn(-c2ccccc2F)c(-c2ccc(F)nc2)c1Br , result: 100%

Given item CCOC(=O)C(C)Oc1nn(-c2ccccc2F)c(-c2ccc(F)nc2)c1I (stereo not shown) , the value recorded as its Post-emergence action against KCHSC is 90%

* * *

In this section, each of the molecules is paired with its reported Pre-emergence action against AMARE.
# Test system: AMARE
# assay_method_text: Pre-emergence action against AMARE, 1280 g/ha
# Format: in vivo, Amaranthus retroflexus
# condition_description: scored visually after about 3 weeks vs untreated controls (100% = plants have died)
Supply the numeric figure in %, leaving out any unit text.

>  <molecule>
Cc1ccc(-n2nc(OCC(=O)O)c(Br)c2-c2ccc(F)nc2)cc1 [VII-067]

>  <Pre-emergence action against AMARE, %>
100

$$$$

Lab book: Pre-emergence action against AMARE of CC(Oc1nn(-c2ccccc2F)c(-c2ccc(F)nc2)c1Br)C(=O)O (centres unmarked) [VII-096] noted as 100

Pre-emergence action against AMARE measured on N#CCCNC(=O)COc1nn(-c2ccc(F)cc2F)c(-c2ccc(F)nc2)c1Br [Example X-029] = 100

Record O=C(COc1nn(-c2ccccc2F)c(-c2ccc(F)nc2)c1Br)O[C@H]1CCOC1=O [VII-064] . Reported Pre-emergence action against AMARE: 100

Pre-emergence action against AMARE for C=CCNC(=O)COc1nn(-c2ccccc2F)c(-c2cncnc2)c1Br [IX-001] is 100

* * *

# Tested on: ECHGC
# assay_method_text: Pre-emergence action at 320 g/ha against ECHGC
# Type: in vivo, Echinochloa crus-galli
# condition_description: visual scoring after about 3 weeks vs untreated controls
observable: Pre-emergence action against ECHGC in % (%)
Supply the numeric figure in %, leaving out any unit text.

Reference set (8 entries):
>  <molecule>
COC(=O)COc1nn(-c2ccc(F)cc2)c(-c2ccc(F)nc2)c1Br [VII-002]

>  <units_text>
%

>  <Pre-emergence action against ECHGC in %>
90

$$$$
>  <molecule>
CC(C)OC(=O)COc1nn(-c2ccccc2F)c(-c2ccc(F)nc2)c1Br [VII-005]

>  <units_text>
%

>  <Pre-emergence action against ECHGC in %>
100

$$$$
>  <molecule>
CS(=O)(=O)NC(=O)COc1nn(-c2ccccc2F)c(-c2ccc(F)nc2)c1Br [Example X-004]

>  <units_text>
%

>  <Pre-emergence action against ECHGC in %>
90

$$$$
>  <molecule>
COC(=O)COc1nn(-c2ccccc2)c(-c2ccc(F)nc2)c1Br [VII-018]

>  <units_text>
%

>  <Pre-emergence action against ECHGC in %>
90

$$$$
>  <molecule>
CCOC(=O)CN(C)S(=O)(=O)NC(=O)COc1nn(-c2ccccc2F)c(-c2cncc(F)c2)c1Br [Example X-041]

>  <units_text>
%

>  <Pre-emergence action against ECHGC in %>
80

$$$$
>  <molecule>
CCOC(=O)COc1nn(-c2ccccc2F)c(-c2ccc(F)nc2)c1C(F)(F)F [VII-010]

>  <units_text>
%

>  <Pre-emergence action against ECHGC in %>
100

$$$$
>  <molecule>
COC(=O)COc1nn(-c2ccccc2F)c(-c2ccc(F)nc2)c1C(F)(F)F [VII-031]

>  <units_text>
%

>  <Pre-emergence action against ECHGC in %>
90

$$$$
>  <molecule>
COC(=O)C(C)Oc1nn(-c2ccccc2)c(-c2ccc(F)nc2)c1Cl (stereo not drawn) [VII-023]

>  <units_text>
%

>  <Pre-emergence action against ECHGC in %>
90

$$$$

For the next question, use this molecule.
CCOC(=O)C(C)Oc1nn(-c2ccccc2F)c(-c2ccc(F)nc2)c1Br (stereo not drawn) [VII-019] on ECHGC gives Pre-emergence action against ECHGC in % = 100
